Format: physicochemical
Conditions: pH 1.8; Ambient; 1 h
Give % assay/degs, difference from T = 0 for every item shown.
Give bare numbers, in %.

Quick batch: % assay/degs, difference from T = 0 for everything below.
1. CCC(CC)COC(=O)[C@H](C)N[P@](=O)(OC[C@H]1O[C@@](C(N)=O)(c2ccc3c(N)ncnn23)[C@H](O)[C@@H]1O)Oc1ccccc1 [Compound G]
2. N#C[C@@]1(c2ccc3c(N)ncnn23)O[C@H](COP(=O)(O)Oc2ccccc2)[C@@H](O)[C@H]1O [Compound F]
3. N#C[C@@]1(c2ccc3c(N)ncnn23)O[C@H](CO)[C@@H](O)[C@H]1O [Compound A]
4. CCC(CC)COC(=O)[C@H](C)N[P@](=O)(OC[C@H]1O[C@@](C#N)(c2ccc3c(N)ncnn23)[C@H](O)[C@@H]1O)Oc1ccccc1 [Formula Ia]

Reply text:
1: 0.00; 2: 0.04; 3: 0.00; 4: −0.3
